# System: NCI-H322M lung
# protocol-text: NCI-60 one-dose screen, 48 h (100 = growth as untreated, 0 = no growth, -100 = all killed)
# condition-details: 10 µM unless noted
This is part of a sample that, as a whole, favours compounds with a hit. Of some 83,000 tested, about 20% had one in any assay.
Decide by growth: equal to or exceeding 90% means met, less means not met.

Could you verify whether the entry CC(=O)/C(Br)=C/c1ccc(Br)o1 shows growth of no less than 90%?
met

Could you verify whether the entry Cc1nn(C)c2ncnc(Nc3ccccc3Br)c12 shows growth of no less than 90%?
met

* * *

# Tested on: PC-3 prostate
# protocol-text: NCI-60 one-dose screen, 48 h
# condition-details: 10 µM unless noted
Compounds without any hit were thinned out: in the full panel of roughly 83,000, 20% have a hit. Calls of active or inactive are those of the source. Rule for the calls: active = growth percent below 10; inactive = the rest.
Hello, when you answer, please use one of the following outcomes: Y = active, N = inactive

# count of solved cases: 10
C=C(c1ccc(OC)c(/C=C/C(=O)c2cc(OC)c(OC)c(OC)c2)c1)c1cc(OC)c(OC)c(OC)c1; N
O=C(Nc1ccc2[nH]ncc2c1)c1csc(Nc2ccccc2)n1; N
Nc1ccc(Cl)c2c(=O)c3ccccc3[nH]c12; N
COc1ccc(S(=O)(=O)N(C)c2oc(-c3ccc(Cl)cc3)nc2C#N)cc1; N
CCCCCCC/C=N/NC(=O)c1ccc(-n2cc(-c3ccccc3)nn2)cc1; N
CCOC(=O)c1c(C)nc2c(c1N)C(=O)C(=O)N2CCc1ccc(OC)c(OC)c1; N
COc1ccc(NC(=O)c2sc3nc(C)c(C(=O)c4ccccc4)cc3c2N)cc1; N
O=C1NCCN1/N=C/c1c(Cl)n(Cc2ccc(Cl)cc2)c2ccccc12; N
CN1/C(=C/C=C/c2n(Cc3ccc4ccccc4c3)c(Cl)c(Cl)[n+]2Cc2ccc3ccccc3c2)Oc2ccccc21; Y
Cn1ccnc1C(=O)/C=C/c1ccc(CC(=O)Nc2cc(F)c(F)c(F)c2)cc1; N

Any idea what this test logged for COC12C=C/C(=C(/C(=O)OCc3ccccn3)C(=O)CCCCCCCCC3(OC)C=C/C(=C(/C(=O)OCc4ccccn4)C(=O)CCCCCCCC1)O3)O2 ?
Y

Any idea what this test logged for CC(C)(C#N)c1cc(C(=O)Nc2cc(Nc3ncccc3-c3ncnc4nc[nH]c34)ccc2F)cc(C(F)(F)F)c1 ?
N
